ASSAY_NAME: AUC (0 to infinity) in ICR mouse at 10 mg/kg, po administered via gavage by UV-UPLC analysis
Format: ADME, organism-based
Parameters: dose 10 mg/kg, route oral, time infinity
EXPERIMENTAL_CONTEXT: in vivo
QUANTITY_NAME: AUC(0-inf)

>>> observed("N#Cc1ccc(/C=C/c2nc3ccccc3c(=O)n2-c2cc(C(=O)O)ccc2F)cc1")
"16800 ng·h/mL"

* * *

System: Staphylococcus aureus
ASSAY_NAME: Antibacterial activity against Staphylococcus aureus ATCC 29213 measured after 16 to 20 hrs by microdilution method
Format: functional
QUANTITY_NAME: MIC (µg/mL)

>>> observed("CS(=O)(=O)Nc1cccc(-n2c(/C=C/c3ccc(C#N)cc3)nc3ccccc3c2=O)c1")
0.015
>>> observed("N#Cc1ccc(/C=C/c2nc3ccccc3c(=O)n2-c2cccc(CN)c2)cc1")
32
>>> observed("C#Cc1ccc(/C=C/c2nc3ccccc3c(=O)n2-c2cccc(C(=O)O)c2)cc1")
0.03
>>> observed("N#Cc1ccc(/C=C/c2nc3ccccc3c(=O)n2-c2cccc(NC(=O)NCCc3cnc[nH]3)c2)cc1")
16
